# ASSAY_TEXT: soluble on expression in E. coli; label from the status in PepcDB or PDB records
QUANTITY_KIND: soluble on expression in E. coli

MKIYVSCDIEGLAGIATFDMEKEDTVLFRELYHQHVAWLIEGIQKSAKNEQITEITIADSHSRGLNLAYARLAEMDERISLVSGFPRMDYMMSGLDSSYDVVFFLGYHAGIGKQKGNMDHGYSASVAYDLKINDLAMNETTINAAYASELGVPVGLIIGESGLEEQLFQEKMMPEVPFVSTKESLGRYAIKNRPMQQVREAIVATTSQVLTSFALSELPRYALQTPATVKLQCVTTAQADRIEMLPMIKRIDGRTVSFVGETMKDVMNGIVAVVGLGGTSY    not soluble
MGSDKIHHHHHHMSVKILFKNATVFPITSRPFKGDVLVSNGKVEKVGENIEDPDAEIVDLTGKFLFPGFVDAHSHIGLFEEGVGYYYSDGNEATDPVTPHVKALDGFNPQDPAIERALAGGVTSVMIVPGSANPVGGQGSVIKFRSIIVEECIVKDPAGLKMAFGENPKRVYGERKQTPSTRMGTAGVIRDYFTKVKNYMKKKELAQKEGKEFTETDLKMEVGEMVLRKKIPARMHAHRADDILTAIRIAEEFGFNLVIEHGTEAYKISKVLAEKKIPVVVGPLLTFRTKLELKDLTMETIAKLLKDGVLIALMCDHPVIPLEFATVQAATAMRYGAKEEDLLKILTVNPAKILGLEDRIGSIEPGKDADLVVWSGHPFDMKSVVERVYIDGVEVFRR    not soluble
